- Target entity: T1, TCV P38 (capsid protein, VSR) wild type (Turnip crinkle virus (pTCV cDNA), UniProt P06663 1-351)
- T1 sequence: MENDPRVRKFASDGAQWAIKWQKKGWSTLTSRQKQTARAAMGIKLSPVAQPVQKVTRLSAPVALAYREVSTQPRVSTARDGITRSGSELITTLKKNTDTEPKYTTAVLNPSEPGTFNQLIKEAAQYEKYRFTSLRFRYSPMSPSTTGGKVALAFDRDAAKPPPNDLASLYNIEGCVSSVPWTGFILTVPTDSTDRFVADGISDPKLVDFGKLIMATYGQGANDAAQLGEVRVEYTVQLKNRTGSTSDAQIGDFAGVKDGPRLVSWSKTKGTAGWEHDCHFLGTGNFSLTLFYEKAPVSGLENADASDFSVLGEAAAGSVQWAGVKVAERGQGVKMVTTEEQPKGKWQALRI
- Procedure summary: competition
Observed property: Ki (nM)
Enter your answer as a number in nM; do not include the unit.

## Task Read off the recorded Ki for dsRNA_33 (dsRNA, 5'-phosphate) RNA 1: CUAAGAUGCUCGCUGCCAAUGAACGACCCUCCCUAA RNA 2: UUAGGGAGGGUCGUUCAUUGGCAGCGAGCAUCU
## Result 0.14

## Task Read off the recorded Ki for siR gf698_24 (dsRNA, 5'-phosphate) RNA 1: UAGUUCAUCCAUGCCAUGUGUAAU RNA 2: UACACAUGGCAUGGAUGAACUAUA
## Result 0.4

## Task Read off the recorded Ki for siR gf698_22 (dsRNA, 5'-phosphate) RNA 1: UAGUUCAUCCAUGCCAUGUGUA RNA 2: CACAUGGCAUGGAUGAACUAUA
## Result 0.18
